- procedure-details: HIE viability, CellTiter-Glo 2.0 Cell Viability Assay
- Type: cell-based
- measurement-parameters: human, IL2004 HIE line monolayers
reported-property: CC50 at 24 h (µM)
Answers are plain numbers, in µM.

Value lookup for CC50 at 24 h; key = CC(=O)Oc1ccccc1C(=O)Nc1ncc([N+](=O)[O-])s1 [NTZ, nitazoxanide]
57

---

- Test system: GII.4 Sydney [P31] HuNoV
- procedure-details: HuNoV replication
- Format: cell-based, human norovirus
- measurement-parameters: Norovirus, in Homo sapiens, 24 h
reported-property: pEC50
Numbers only, as −log10 of the molar value.

C[C@@]1(O)[C@H](O)[C@@H](CO)O[C@H]1n1ccc(N)nc1=O [2’CMC, 2’-C-methylcytidine]
5.00

Turning now to a further compound:
Find the measured pEC50: item CC(=O)Oc1ccccc1C(=O)Nc1ncc([N+](=O)[O-])s1 [NTZ, nitazoxanide] , target or system GII.4 Sydney [P31] HuNoV.
4.43

---

- Tested on: 5 HuNoV strains
- procedure-details: Antiviral pipeline, summary over all HuNoV strains and HIE lines tested
- Assay type: cell-based
- measurement-parameters: Norovirus, in Homo sapiens
reported-property: EC50

Value lookup for EC50; key = CC(=O)Oc1ccccc1C(=O)Nc1ncc([N+](=O)[O-])s1 [NTZ, nitazoxanide]
≥ 10 µM

---

- procedure-details: HIE viability, CellTiter-Glo 2.0 Cell Viability Assay
- Format: cell-based
- measurement-parameters: human, D2004 HIE line monolayers
reported-property: CC50 at 24 h (µM)
One number for each entry, in µM.

Value lookup for CC50 at 24 h; key = CC(=O)Oc1ccccc1C(=O)Nc1ncc([N+](=O)[O-])s1 [NTZ, nitazoxanide]
50.9
